Please respond with reported ED50 for every item in the list.
- System: mice
- procedure_text: Relative immobility (R.I.), ring-immobility test, mouse tetrad
- Format: in vivo
- condition: Mus musculus, iv, vehicle E:E:S (1:1:18), read-out: R.I. ED50 (relative immobility)

Give recorded ED50 with mice for the following molecule: CC1=CC[C@@H]2[C@@H](C1)c1c(O)cc(C(C)(C)CCCCC(=O)NN3CCCCCC3)cc1OC2(C)C [O-2489, N-(Homo-piperidin-1-yl)-carboxamido]
20.5 µmol/kg

// lookup ED50 | system=mice | key= CNC(=O)CCCCC(C)(C)c1cc(O)c2c(c1)OC(C)(C)[C@@H]1CC=C(C)C[C@@H]21 [O-2490, N-(Methyl)carboxamido]
> 2.5 µmol/kg

Recorded ED50 for CC1=CC[C@@H]2[C@@H](C1)c1c(O)cc(C(C)(C)CCCCC(=O)NN3CCOCC3)cc1OC2(C)C [O-2544, N-(Morpholin-1-yl)-carboxamido] with mice, please?
0.63 µmol/kg

Values compiled from patent US20080064679A1.
